Protocol description: PFAS levels in serum samples of airport employees (LC/MS/MS)
Measurement conditions: 2nd sampling (October 2018), count 17
Decision: Serum PFAS level, Median compared against 2; not below it gives satisfied, below it gives not satisfied.

* O=S(=O)(O)C(F)(C(F)(F)F)C(F)(F)C(F)(F)C(F)(F)C(F)(F)C(F)(F)C(F)(F)F (stereo not drawn) [1m-PFOS, perfluoro-1-methylheptanesulfonate] | not satisfied
* O=S(=O)(O)C(F)(F)C(F)(F)C(F)(F)C(F)(F)C(F)(F)C(F)(F)C(F)(F)F | not satisfied
* O=S(=O)(O)C(F)(F)C(F)(F)C(F)(F)C(F)(F)F | not satisfied

Consider the additional compound presented here.
-- ask Reported Serum PFAS level, Median at or above 2? O=S(=O)(O)C(F)(F)C(F)(F)C(F)(F)C(F)(F)C(F)(F)F
-- reply satisfied

###

Protocol description: PFAS levels in serum samples of airport employees (LC/MS/MS)
Measurement conditions: 1st sampling (September 2018), count 17
# Serum PFAS level, 25 percentile values compiled below
// no unit string in output, number only

• O=S(=O)(O)C(F)(F)C(F)(F)C(F)(F)C(F)(F)F = 0.32
• O=S(=O)(O)C(F)(F)C(F)(F)C(F)(F)C(F)(F)C(F)(F)C(F)(F)C(F)(F)C(F)(F)F = 7.7

-- ask Form field: reported Serum PFAS level, 25 percentile of O=C(O)C(F)(F)C(F)(F)C(F)(F)C(F)(F)C(F)(F)C(F)(F)C(F)(F)F
-- reply 8.7

###

Protocol description: Individual serum elimination rate and half-life (linear regression per employee);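 for HL (half-life): half-life in years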
Measurement conditions: human, serum, oral, HL (half-life), individual estimate, subject 3, 5 samples
Reported endpoint: half-life (days)
Supply the numeric figure in days, leaving out any unit text.

- O=C(O)C(F)(F)C(F)(F)C(F)(F)C(F)(F)C(F)(F)C(F)(F)C(F)(F)F: 438
- O=S(=O)(O)C(F)(F)C(F)(F)C(F)(F)C(F)(F)C(F)(F)C(F)(F)F: 548

-- ask Give its half-life value. Item: O=C(O)C(F)(F)C(F)(F)C(F)(F)C(F)(F)C(F)(F)C(F)(F)F
-- reply 146

###

Protocol description: Individual serum elimination rate and half-life (linear regression per employee);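 for HL (half-life): half-life in years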
Measurement conditions: individual estimate, subject 11, 5 samples
Reported endpoint: HL (half-life)
Don't forget the unit after the value.

• O=S(=O)(O)C(F)(F)C(F)(F)C(F)(F)C(F)(F)C(F)(F)C(F)(F)C(F)(F)C(F)(F)F = 4.7 year
• O=S(=O)(O)C(F)(C(F)(F)F)C(F)(F)C(F)(F)C(F)(F)C(F)(F)C(F)(F)C(F)(F)F (stereo not drawn) [1m-PFOS, perfluoro-1-methylheptanesulfonate] = 0.4 year

-- ask Suppose we examine the compound O=S(=O)(O)C(F)(F)C(F)(F)C(F)(F)C(F)(F)C(F)(F)C(F)(F)C(F)(F)F ; what HL (half-life) value has been reported?
-- reply 0.4 year

-- ask If you can, please state the reported HL (half-life) value of O=S(=O)(O)C(F)(F)C(F)(F)C(F)(F)C(F)(F)C(F)(F)F .
-- reply 0.3 year

-- ask // lookup HL (half-life) for O=C(O)C(F)(F)C(F)(F)C(F)(F)C(F)(F)C(F)(F)F
-- reply 0.2 year

-- ask Name the reported HL (half-life) value associated with the compound O=S(=O)(O)C(F)(F)C(F)(F)C(F)(F)C(F)(F)F
-- reply 0.1 year

###

Protocol description: PFAS levels in urine samples of airport employees, specific-gravity adjusted (LC/MS/MS)
Type: in vivo, human
Measurement conditions: 3rd sampling (November, 2018), count 16
Procedure: Only one employee provided a single urine sample. […] All employees provided written informed consent. The samples were thawed 1–2 h, then mixed by vortex shaker and manual turning. […] Aliquots of 20μL of the sample were analyzed using LC/MS/MS. […] Urinary PFAS concentrations were specific-gravity adjusted. The ratio of urine and serum concentration for each PFAS (urine/serum ratio) at each sampling was calculated based on PFAS concentrations in paired serum and urine samples from 17 employees. […]
Reported endpoint: Specific gravity adjusted urinary level, 25 percentile (ng/mL)
Express it in ng/mL; write the number only.

Example cases with answers are listed next.
- O=S(=O)(O)C(F)(F)C(F)(F)C(F)(F)C(F)(F)C(F)(F)F [PFPeS, perfluoropentane sulfonic acid]: 0.05
- O=C(O)C(F)(F)C(F)(F)C(F)(F)C(F)(F)C(F)(F)C(F)(F)C(F)(F)F [PFOA, perfluorooctanoic acid]: 0.02
- O=S(=O)(O)C(F)(F)C(F)(F)C(F)(F)C(F)(F)C(F)(F)C(F)(F)F [PFHxS, perfluorohexane sulfonic acid]: 0.05

Note: attention shifts to another entry.
-- ask Entry O=C(O)C(F)(F)C(F)(F)C(F)(F)C(F)(F)C(F)(F)C(F)(F)F [PFHpA, perfluoroheptanoic acid] has what Specific gravity adjusted urinary level, 25 percentile?
-- reply 0.01

###

Protocol description: Individual serum elimination rate and half-life (linear regression per employee);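 for HL (half-life): half-life in years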
Measurement conditions: individual estimate, subject 14, 4 samples
Reported endpoint: HL (half-life) (year)
The response must be a number in year with no trailing unit.

* O=S(=O)(O)C(F)(C(F)(F)F)C(F)(F)C(F)(F)C(F)(F)C(F)(F)C(F)(F)C(F)(F)F (centres unmarked) [1m-PFOS, perfluoro-1-methylheptanesulfonate] | 0.4
* O=S(=O)(O)C(F)(F)C(F)(F)C(F)(F)C(F)(F)C(F)(F)F | 0.6
* O=S(=O)(O)C(F)(F)C(F)(F)C(F)(F)C(F)(F)C(F)(F)C(F)(F)C(F)(F)C(F)(F)F | 2.0
* O=S(=O)(O)C(F)(F)C(F)(F)C(F)(F)C(F)(F)C(F)(F)C(F)(F)C(F)(F)F | 0.7

Okay, now this molecule:
-- ask If you can, please state the reported HL (half-life) value of O=S(=O)(O)C(F)(F)C(F)(F)C(F)(F)C(F)(F)F .
-- reply 0.1

###

Protocol description: Individual serum elimination rate and half-life (linear regression per employee);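 for HL (half-life): half-life in years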
Measurement conditions: individual estimate, subject 13, 5 samples
Reported endpoint: HL (half-life) (year)
Answer in year, number only, no unit symbol.

-- ask Form field: reported HL (half-life) of O=S(=O)(O)C(F)(F)C(F)(F)C(F)(F)C(F)(F)C(F)(F)C(F)(F)C(F)(F)C(F)(F)F [L-PFOS, linear perfluorooctane sulfonic acid]
-- reply 3.7

-- ask Name the recorded HL (half-life) for O=S(=O)(O)C(F)(F)C(F)(F)C(F)(F)C(F)(F)C(F)(F)F [PFPeS, perfluoropentane sulfonic acid] .
-- reply 0.9

-- ask Requested read-out: HL (half-life). Entry: O=S(=O)(O)C(F)(F)C(F)(F)C(F)(F)C(F)(F)F [PFBS, perfluorobutane sulfonic acid]
-- reply 0.1

-- ask Reported HL (half-life), compound O=S(=O)(O)C(F)(C(F)(F)F)C(F)(F)C(F)(F)C(F)(F)C(F)(F)C(F)(F)C(F)(F)F (stereo not shown) [1m-PFOS, perfluoro-1-methylheptanesulfonate] : ____
-- reply 0.6

###

Protocol description: PFAS levels in serum samples of airport employees (LC/MS/MS)
Measurement conditions: 5th sampling (January 2019), count 16
Reported endpoint: Serum PFAS level, Median

• O=S(=O)(O)C(F)(F)C(F)(F)C(F)(F)C(F)(F)C(F)(F)C(F)(F)C(F)(F)C(F)(F)F = 10
• O=S(=O)(O)C(F)(F)C(F)(F)C(F)(F)C(F)(F)F = 0.06
• O=S(=O)(O)C(F)(C(F)(F)F)C(F)(F)C(F)(F)C(F)(F)C(F)(F)C(F)(F)C(F)(F)F (stereo not drawn) [1m-PFOS, perfluoro-1-methylheptanesulfonate] = 0.97

-- ask Sample O=C(O)C(F)(F)C(F)(F)C(F)(F)C(F)(F)C(F)(F)C(F)(F)F — what was its Serum PFAS level, Median?
-- reply 0.10

-- ask Looking for the measured Serum PFAS level, Median of O=S(=O)(O)C(F)(F)C(F)(F)C(F)(F)C(F)(F)C(F)(F)C(F)(F)C(F)(F)F , can you help?
-- reply 1.5

-- ask Return reported Serum PFAS level, Median; argument: O=S(=O)(O)C(F)(F)C(F)(F)C(F)(F)C(F)(F)C(F)(F)C(F)(F)F
-- reply 117

###

Protocol description: Population average serum elimination rate and half-life (linear mixed model, one compartment, first-order)
Measurement conditions: human, serum, oral, Average serum half-life, population average, linear mixed model with original serum levels, 17 airport employees after end of drinking-water exposure
Reported endpoint: half-life (days)
Report the value in days with no unit label.

-- ask Look up half-life: O=C(O)C(F)(F)C(F)(F)C(F)(F)C(F)(F)C(F)(F)C(F)(F)F
-- reply 62

###

Protocol description: PFAS levels in serum samples of airport employees (LC/MS/MS)
Measurement conditions: median of first serum samples, all 26 airport employees
Procedure: All 26 employees at the airport were invited for a blood sampling between 11 and 14 September 2018 (i.e., within 11 to 14 d after the termination of contaminated drinking-water exposure). Information on age, home address, employment history, working tasks, and sick leave and vacation days in August and September were collected by questionnaire. […] Aliquots of 4μL of the sample were analyzed using LC/MS/MS. […]
Reported endpoint: Serum concentration, weight basis

Some entries whose results are on file:
• O=S(=O)(O)C(F)(F)C(F)(F)C(F)(F)C(F)(F)C(F)(F)C(F)(F)F = 76
• O=C(O)C(F)(F)C(F)(F)C(F)(F)C(F)(F)C(F)(F)C(F)(F)C(F)(F)F = 9.1
• O=C(O)C(F)(F)C(F)(F)C(F)(F)C(F)(F)C(F)(F)F = 0.38
• O=S(=O)(O)C(F)(F)C(F)(F)C(F)(F)C(F)(F)C(F)(F)F = 6.9
• O=S(=O)(O)C(F)(F)C(F)(F)C(F)(F)C(F)(F)F = 0.33
• O=S(=O)(O)C(F)(F)C(F)(F)C(F)(F)C(F)(F)C(F)(F)C(F)(F)C(F)(F)C(F)(F)F = 9.5
• O=C(O)C(F)(F)C(F)(F)C(F)(F)C(F)(F)C(F)(F)C(F)(F)F = 0.46

// next entry
-- ask Field request: Serum concentration, weight basis | item: O=S(=O)(O)C(F)(F)C(F)(F)C(F)(F)C(F)(F)C(F)(F)C(F)(F)C(F)(F)F
-- reply 1.3

Reference source: paper PMC7351026
